# Species: Rattus norvegicus
# MEASUREMENT NOTES: Open TG-GATES - Regimen: Single
# Assay type: toxicity, organism-based, Sprague-Dawley
# Design: regimen Single, gender Male, age 6 weeks
# STATED CONDITIONS: in vivo, po, 0 mg/kg, 24 h, tissue Blood, route gavage, dose level Control
REPORTED ENDPOINT: APTT (s)
Please respond with the number in s and leave the unit unwritten.

These recorded examples may help you get a feel for the data.
O=C(CCCN1CCC(O)(c2ccc(Cl)cc2)CC1)c1ccc(F)cc1; 16.2
CC/C(=C(\c1ccccc1)c1ccc(OCCN(C)C)cc1)c1ccccc1; 15.5
CCCNC(=O)NS(=O)(=O)c1ccc(Cl)cc1 [CHLORPROPAMIDE]; 16.9
COc1cc2c(c(OC)c1OC)-c1ccc(OC)c(=O)cc1[C@@H](NC(C)=O)CC2; 16.4

# input compound: COC1=CC(=O)C[C@@H](C)[C@]12Oc1c(Cl)c(OC)cc(OC)c1C2=O ; wanted: its APTT
18.9

# input compound: COc1ccc2[nH]c([S+]([O-])Cc3ncc(C)c(OC)c3C)nc2c1 (stereo unspecified) ; wanted: its APTT
20.7

# input compound: Cc1ccc(C)c(OCCCC(C)(C)C(=O)O)c1 ; wanted: its APTT
14.7

# input compound: CN(C)CCN(Cc1cccs1)c1ccccn1 ; wanted: its APTT
20.1

# input compound: CCOc1ccc(NC(=O)CC(C)O)cc1 (stereo unspecified) ; wanted: its APTT
18.6

# input compound: CC1=C(/C=C/C(C)=C/C=C/C(C)=C/CO)C(C)(C)CCC1 ; wanted: its APTT
20.8

# input compound: CN(C)CCCN1c2ccccc2CCc2ccccc21 ; wanted: its APTT
17.1

# input compound: NNC(=O)c1ccncc1 ; wanted: its APTT
18.6

# input compound: CN(C)CCCN1c2ccccc2CCc2ccc(Cl)cc21 ; wanted: its APTT
18

# input compound: CN1C(=O)CN=C(c2ccccc2)c2cc(Cl)ccc21 ; wanted: its APTT
16.7

# input compound: NC(N)=Nc1nc(CSCCC(N)=NS(N)(=O)=O)cs1 ; wanted: its APTT
19.6

# input compound: CCOC(=O)CCC(=O)O[C@H]1[C@H](O[C@@H]2[C@@H](C)[C@H](O[C@H]3C[C@@](C)(OC)[C@@H](O)[C@H](C)O3)[C@@H](C)C(=O)O[C@H](CC)[C@@](C)(O)[C@H](O)[C@@H](C)C(=O)[C@H](C)C[C@@]2(C)O)O[C@H](C)C[C@@H]1N(C)C [ERYTHROMYCIN ETHYLSUCCINATE] ; wanted: its APTT
20.9
